Where do these numbers come from? They come from the SangsterLogP compilation.

PROCEDURE_TEXT: method code SF-CR+AS, from Korenman, I.; Lineva, S.; Tishchenko, M. (1979). The influence of substituents on the extraction of phenols. Russ. J. Phys. Chem., 53(11)1678-1679.
SETUP_CONDITIONS: pH 2.5
PARAMETER: logD
The response must contain the number and no unit.

Exam item: What value of measured logD is listed for "Cc1cc(N=O)ccc1O" ?
Marked response: 1.71

###

PROCEDURE_TEXT: method code SF-AS, from DOI: 10.1021/js960328j, PMID: 9050798
SETUP_CONDITIONS: pH 6.6
PARAMETER: logD

Exam item: What value of measured logD is listed for CCCS(=O)c1ccc2[nH]c(NC(=O)OC)nc2c1 (stereo unspecified) ?
Marked response: 1.27

###

PROCEDURE_TEXT: method code SF-HPLC, from DOI: 10.1211/0022357001774101, PMID: 10813545
PARAMETER: logP
The response must contain the number and no unit.

Exam item: What value of measured logP is listed for "C[C@]12CC[C@H]3[C@@H](CCC4=CC(=O)CC[C@@]43C)[C@@H]1CC[C@@H]2OC(=O)CCC1CCCC1" ?
Marked response: 4.89

###

PROCEDURE_TEXT: method code SF-HPLC, from DOI: 10.1016/0378-5173(84)90193-5
SETUP_CONDITIONS: pH 4.0
PARAMETER: logD
The response must contain the number and no unit.

CCCC(=O)n1c(=O)[nH]cc(F)c1=O: 0.67

Now for another entry.
Exam item: What value of measured logD is listed for "CC(=O)n1c(=O)[nH]cc(F)c1=O" ?
Marked response: -0.34

###

PARAMETER: logP
The response must contain the number and no unit.

Exam item: What value of measured logP is listed for "CC(C)Nc1nc(Cl)nc(NC2CC2)n1" ?
Marked response: 3.06

###

PROCEDURE_TEXT: method code SF-AS, from DOI: 10.1002/jps.2600751012, PMID: 3795027
PARAMETER: logP
The response must contain the number and no unit.

Exam item: What value of measured logP is listed for "O=C(OCc1ccccc1)c1cccnc1" ?
Marked response: 2.4

###

PROCEDURE_TEXT: method code SF-RC, from DOI: 10.1016/s0969-8051(02)00326-8, PMID: 12234587
SETUP_CONDITIONS: pH 7.4
PARAMETER: logD
The response must contain the number and no unit.

Exam item: What value of measured logD is listed for "CNc1ccc(-c2cc3cc(I)ccc3o2)cc1" ?
Marked response: 2.04

###

Parameter: logD. Scope: all listed entries.
PROCEDURE_TEXT: method code SF-RC, from DOI: 10.1021/jm00238a003, PMID: 1120999
SETUP_CONDITIONS: pH 7.0

// solved cases for logD follow
Nc1ccn(C2OC(COC(=O)C3CCCCC3)C(O)C2O)c(=O)n1 (centres undefined): 0.8
CC(C)(C)C(=O)OC[C@H]1O[C@@H](n2ccc(N)nc2=O)[C@@H](O)[C@@H]1O: 0.1
CC(C)C(=O)OCC1OC(n2ccc(N)nc2=O)C(O)C1O (centres undefined): 0.3

Now for another entry.
Exam item: What value of measured logD is listed for "CCCCCCCC(=O)OC[C@H]1O[C@@H](n2ccc(N)nc2=O)[C@@H](O)[C@@H]1O" ?
Marked response: 1.6
